assay: Volume weighted particle size distribution by laser diffraction (Sympatec Helos); type: physicochemical; conditions: in-process slurry at 54° C., after the recycle loop, before final cooling
test.readout: x50/d50 particle size dimension at end of recycle loop

Cc1cc(C2=NOC(c3cc(Cl)cc(Cl)c3)(C(F)(F)F)C2)ccc1C(=O)NCC(=O)NCC(F)(F)F (stereo not shown) [Example 1]	approximately 40 μm
Cc1cc(C2=NOC(c3cc(Cl)cc(Cl)c3)(C(F)(F)F)C2)ccc1C(=O)NCC(=O)NCC(F)(F)F (stereo not shown) [Example 4]	approximately 40 μm
